- measurementTarget: Epidermal growth factor receptor (Homo sapiens)
- measurementDescription: EGFR binders on small-molecule microarrays, primary screen, biochemical, small-molecule microarray, 635 nm fluorescence (AID 1104);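 also: score merges 667 nm emission intensity with spot signal to noise over triplicate slides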
- conditionContext: EGFR binding, higher = more signal
valueType: composite z-score

Reference set (4 entries):
| molecule | composite z-score |
| --- | --- |
| CC(=O)OC[C@H]1O[C@@H](ON=C(C)CCN2CCc3nc(-c4ccccc4)c(-c4ccccc4)cc3C2)[C@H](OC(C)=O)[C@@H](OC(C)=O)[C@@H]1OC(C)=O | 0.525 |
| COCCOC(=O)N1C(=O)[C@@]2(c3cc(C#Cc4ccc(OC)cc4)ccc31)[C@H](c1ccc(O)cc1)N1[C@H](c3ccccc3)[C@H](c3ccccc3)OC(=O)[C@H]1[C@@H]2C(N)=O | 0.655 |
| C[C@H](c1ccccc1)N1C(=O)[C@H]2[C@@H]3C(=CC[C@H]2C1=O)C(=O)[C@H]1O[C@H]1[C@H]3O | 0.626 |
| O=C1[C@H]2[C@H]3[C@H](O)[C@H](O)CC(=NO[C@@H]4O[C@H](CO)[C@@H](O)[C@H](O)[C@H]4O)[C@@H]3CC[C@H]2C(=O)N1c1ccc(F)cc1F | 0.541 |

**Query** Data request, read-out composite z-score, for CC(C)N1CC=CC23O[C@@H]4C=CCCOC(=O)C4[C@H]2C(=O)N(CCCCCCO)[C@@H]3C1=O (stereo partly specified)
**Result** -1.13

**Query** Again, but for CCOC(=O)[C@H](CC(C)C)NC(=O)CCC1CC(OC(=O)NCc2cccc3ccccc23)CC2(CCCC(COC(=O)NCCN3CCOCC3)O2)O1 (stereo partly specified)
**Result** 0.416

---

- measurementTarget: Epidermal growth factor receptor (Homo sapiens) (UniProt P00533)
- Sequence (P00533 whole entry, looked up): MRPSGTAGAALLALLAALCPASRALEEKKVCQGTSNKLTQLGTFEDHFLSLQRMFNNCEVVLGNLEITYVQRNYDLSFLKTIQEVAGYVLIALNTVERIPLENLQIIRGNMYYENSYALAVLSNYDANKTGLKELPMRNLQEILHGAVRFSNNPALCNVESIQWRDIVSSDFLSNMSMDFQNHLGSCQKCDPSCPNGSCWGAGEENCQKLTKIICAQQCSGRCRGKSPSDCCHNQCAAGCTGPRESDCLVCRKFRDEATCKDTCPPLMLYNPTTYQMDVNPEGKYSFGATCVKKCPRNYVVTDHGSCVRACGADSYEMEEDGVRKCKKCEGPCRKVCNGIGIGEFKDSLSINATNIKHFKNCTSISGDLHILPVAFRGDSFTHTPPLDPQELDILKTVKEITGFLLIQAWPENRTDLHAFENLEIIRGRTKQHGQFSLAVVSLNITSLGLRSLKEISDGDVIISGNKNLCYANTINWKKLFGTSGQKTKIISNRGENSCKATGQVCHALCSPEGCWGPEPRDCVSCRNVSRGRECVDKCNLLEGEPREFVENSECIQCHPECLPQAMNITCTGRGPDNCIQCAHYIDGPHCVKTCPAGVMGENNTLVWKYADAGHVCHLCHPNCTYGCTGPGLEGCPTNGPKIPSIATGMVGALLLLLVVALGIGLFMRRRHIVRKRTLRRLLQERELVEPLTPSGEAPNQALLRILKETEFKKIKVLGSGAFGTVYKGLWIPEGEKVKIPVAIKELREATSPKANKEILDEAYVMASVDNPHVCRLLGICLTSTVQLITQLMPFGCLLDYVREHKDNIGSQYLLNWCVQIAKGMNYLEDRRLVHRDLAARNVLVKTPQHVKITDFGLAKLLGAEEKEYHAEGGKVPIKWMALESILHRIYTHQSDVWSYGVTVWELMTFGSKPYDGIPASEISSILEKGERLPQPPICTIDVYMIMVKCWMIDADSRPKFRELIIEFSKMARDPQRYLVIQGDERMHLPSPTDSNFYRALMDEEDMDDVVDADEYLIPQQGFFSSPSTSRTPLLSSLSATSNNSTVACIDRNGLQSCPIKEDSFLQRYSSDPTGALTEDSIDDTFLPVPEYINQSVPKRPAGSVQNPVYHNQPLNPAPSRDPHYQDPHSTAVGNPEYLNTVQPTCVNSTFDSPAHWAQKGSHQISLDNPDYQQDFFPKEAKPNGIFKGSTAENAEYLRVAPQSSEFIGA
- measurementDescription: EGFR binders on small-molecule microarrays, primary screen, biochemical, small-molecule microarray, 635 nm fluorescence (AID 1104);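 also: score merges 667 nm emission intensity with spot signal to noise over triplicate slides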
- conditionContext: EGFR binding, higher = more signal
Threshold rule: composite z-score greater than or equal to 0.3 is true (1); below that, false (0).

Examples from the recorded data:
| molecule | label |
| --- | --- |
| CC(C)NC(=O)[C@@]1(C)c2ccccc2C(=O)N(Cc2cc(F)cc(C(F)(F)F)c2)[C@H]1c1ccc(CO)cc1 | true (1) |
| C[C@@H](c1ccccc1)N1C(=O)[C@H]2[C@H]3[C@H](O)[C@H](O)CC(=NNC(=O)OCc4ccccc4)[C@H]3CC[C@H]2C1=O | false (0) |
| CO[C@H]1COC(=O)[C@H](C)COC(=O)CC=C[C@@H](C)[C@H](OC)COC(=O)CC=C[C@@H]1C | true (1) |
| CCOC(=O)NN=C1C[C@@H](O)[C@@H](O)[C@@H]2[C@@H]3C(=O)N(CC)C(=O)[C@@H]3CC[C@@H]12 | true (1) |
| CCOC(=O)[C@H](Cc1ccccc1)NC(=O)CCC1CC(OC(=O)NCc2ccc3c(c2)OCO3)CC2(CCCC(COC(=O)NCC3CCCCC3)O2)O1 (some centres undefined) | true (1) |
| CCCCCCc1nc(CCCc2cc3c(c(CCCCCC)n2)[Si](C(C)C)(C(C)C)O[C@H]3c2ccccc2)cc2c1[Si](C(C)C)(C(C)C)O[C@H]2c1ccccc1 | false (0) |

**Query** Is reported composite z-score greater than or equal to 0.3 here: CCOC(=O)[C@H](Cc1ccccc1)NC(=O)CCC1CC(OC(=O)NCc2ccc3c(c2)OCO3)CC2(CCCC(COC(=O)NCC(c3ccccc3)c3ccccc3)O2)O1 (some centres undefined)
**Result** false (0)

**Query** Proceed to `C=CC[C@@H]1C=C[C@H](ON=C2c3cc(OC)ccc3O[C@H](c3cccc(OC)c3)[C@H]2O)[C@@H](CO)O1`
**Result** true (1)

**Query** Now consider `COc1ccc([Si](C)(C)[C@H]2[C@H](CC(=O)N3CCC[C@H]3CO)O[C@@]3(C(=O)N(Cc4cccc(N5C(=O)COc6ccccc65)c4)c4ccccc43)[C@@H]2C)cc1` and answer again.
**Result** true (1)

**Query** Further, for C[C@@H]1CCC2C(=O)N(Cc3ccccc3)C[C@@H](O)CN2[C@H]1c1ccc(Br)cc1 (some centres undefined) ?
**Result** false (0)

**Query** // same read-out, input: `CC(C)=NOCc1ccc(-c2cc(-c3ccccc3)no2)cc1`
**Result** false (0)

**Query** Then `CC(CCC(=O)OC[C@H]1O[C@H](C#Cc2ccccc2)C=C[C@@H]1Oc1ccc(C)cc1)=NO[C@@H](C)c1cn([C@H](CO)Cc2ccccc2)nn1` ?
**Result** true (1)

---

- measurementDescription: basal HepG2 mitochondrial membrane potential changes, profiling panel, cell-based, JC-1 fluorescence, 24 h, 100 nL compound (AID 1167); also: test concentration not given here
- conditionContext: higher = more signal
Measured z-score by item
// return just the number, without any unit appended

| molecule | z-score |
| --- | --- |
| Cc1ccc(F)cc1S(=O)(=O)N[C@@H]1CCN(Cc2ccc(CC(C)C)cc2)C1 | -1.08 |

**Query** Quick one: z-score of CCN(CC)c1ccc(N2CC=CC34O[C@@H]5/C=C\CCC(C)OC(=O)C5[C@H]3C(=O)N(CCCO)[C@@H]4C2=O)cc1 (some centres not stated) ?
**Result** -0.356

**Query** Another molecule to check: `COCCOC(=O)N1C(=O)[C@@]2(c3cc(C#Cc4ccc(OC)cc4)ccc31)[C@H](C(=O)N1CCN(c3ncccn3)CC1)[C@H]1C(=O)O[C@H](c3ccccc3)[C@H](c3ccccc3)N1[C@@H]2c1ccc(OCCO)cc1`
**Result** 0.331

**Query** # repeat for `O=C1C2=CC[C@H]3C(=O)N(Cc4ccc5c(c4)OCO5)C(=O)[C@H]3[C@H]2[C@H](O)[C@@H]2O[C@H]12`
**Result** -0.275

---

- measurementTarget: Focal adhesion kinase 1 (Homo sapiens) (UniProt Q05397)
- Sequence (Q05397 whole entry, looked up): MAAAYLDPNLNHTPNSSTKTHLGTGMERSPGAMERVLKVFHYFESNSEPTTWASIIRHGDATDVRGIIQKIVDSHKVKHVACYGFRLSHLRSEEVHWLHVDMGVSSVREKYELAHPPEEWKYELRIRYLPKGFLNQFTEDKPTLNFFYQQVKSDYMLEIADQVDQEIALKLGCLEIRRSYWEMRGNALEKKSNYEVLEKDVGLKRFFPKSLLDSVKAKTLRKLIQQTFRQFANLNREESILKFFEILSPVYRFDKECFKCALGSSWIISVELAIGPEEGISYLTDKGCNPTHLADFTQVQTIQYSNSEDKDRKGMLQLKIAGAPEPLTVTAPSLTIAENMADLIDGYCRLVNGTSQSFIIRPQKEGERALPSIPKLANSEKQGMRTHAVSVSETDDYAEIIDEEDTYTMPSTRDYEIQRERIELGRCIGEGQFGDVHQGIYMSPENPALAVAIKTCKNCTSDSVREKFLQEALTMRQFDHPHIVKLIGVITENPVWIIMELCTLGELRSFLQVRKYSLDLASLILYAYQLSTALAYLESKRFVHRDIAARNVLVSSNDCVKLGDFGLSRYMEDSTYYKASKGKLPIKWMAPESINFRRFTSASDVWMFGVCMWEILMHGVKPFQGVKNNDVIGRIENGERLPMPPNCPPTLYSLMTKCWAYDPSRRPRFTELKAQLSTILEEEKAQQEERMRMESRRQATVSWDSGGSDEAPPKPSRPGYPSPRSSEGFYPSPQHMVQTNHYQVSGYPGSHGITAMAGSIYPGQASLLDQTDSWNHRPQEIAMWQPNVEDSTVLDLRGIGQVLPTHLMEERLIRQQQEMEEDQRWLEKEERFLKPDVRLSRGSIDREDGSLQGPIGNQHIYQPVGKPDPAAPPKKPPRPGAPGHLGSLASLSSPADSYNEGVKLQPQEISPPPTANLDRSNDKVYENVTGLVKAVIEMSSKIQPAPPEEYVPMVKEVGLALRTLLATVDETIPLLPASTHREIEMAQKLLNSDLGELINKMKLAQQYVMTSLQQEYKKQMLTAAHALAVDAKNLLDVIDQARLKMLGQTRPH
- measurementDescription: small-molecule microarray binders of FAK, primary screen, biochemical, 635/667 nm fluorescence, BSA, DTT (AID 1130);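 also: composite of spot emission at 667 nm and signal to noise over triplicate slides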
- conditionContext: PTK2 binding, 635 nm fluorescence, higher = more signal
Here, each record is paired with measured composite z-score data.
// no unit, no text: just the number

| compound | composite z-score |
| --- | --- |
| CC(=O)O[C@H]1C2=C(C(=O)[C@@H]3O[C@@H]31)[C@H]1C(C)O[C@@H]2[C@@]23C(=O)[C@@H]4O[C@@H]4[C@@H](O)C2=CO[C@H](C)[C@@H]13 (some centres undefined) | -0.0962 |
| CCN1C(=O)[C@H]2[C@H]3[C@H](O)[C@H](O)CC(=NOCC=C(C)CCC=C(C)C)[C@H]3CC[C@H]2C1=O | 0.123 |
| COC(=O)CC1OC1[C@H](C)[C@@H](OC)C(C)C (some centres undefined) | -0.405 |
| COCCCNC(=O)[C@]1(CCC(=O)OC(C)(C)C)N=C(c2ccc(OCCCO)cc2)O[C@@H]1c1ccccc1N=[N+]=[N-] | 0.688 |
| CCOC(=O)CCN1C(=O)[C@H]2[C@H]3[C@H](O)[C@H](O)CC(=O)[C@H]3CC[C@H]2C1=O | -0.186 |

**Query** I'm curious: which composite z-score was measured for `CCCNC(=O)OC[C@H]1O[C@H](CCON=C[C@@H](OC)[C@H](C)C=CCC(=O)OC)C=C[C@@H]1Oc1ccc(OC)cc1` tested on Focal adhesion kinase 1 (Homo sapiens) (UniProt Q05397)?
**Result** -0.0322

**Query** What about `CN(C)CCCNC(=O)[C@@H]1c2ccccc2C(=O)N(Cc2ccccc2)[C@H]1c1ccc(CO)cc1` ?
**Result** -0.193

**Query** And the next one, `COC(=O)[C@@]1(Cc2ccc(F)cc2)[C@H]2c3cc(C(=O)N(C)C)n(Cc4ccc(OC)c(OC)c4)c3C[C@H]2CN1C(=O)c1ccccc1` ?
**Result** 1.71

**Query** Also `CCOC(=O)CCN1C(=O)[C@H]2[C@H]3[C@H](O)[C@H](O)CC(=NOCc4ccccc4)[C@@H]3CC[C@H]2C1=O` ?
**Result** 0.163

**Query** Could you do the same for `COC(=O)CC=C[C@H](C)[C@@H](OCc1ccccc1Br)C(C)C` , please?
**Result** 0.0767

**Query** Record: `C[C@@H]1C=CCC(=O)OC[C@H](C)C(=O)N2CCC[C@H]2C(=O)OC1`
**Result** -0.344

**Query** Then `Cc1ccc(F)cc1S(=O)(=O)N[C@@H]1CCN(Cc2ccc(CC(C)C)cc2)C1` ?
**Result** 0.132

**Query** Same lookup for `CC(C)=CCCC(C)=CCON=C1[C@H]2CCn3c(=O)n(C)c(=O)n3[C@H]2[C@H](O)[C@@H]2O[C@H]12` , please.
**Result** -0.236
